Listing: normalized growth of selected molecules
Assay: chemical genetic growth profiling, strain panel (AID 1159580);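 also: tested at 20 µM; growth read once vehicle control cultures reached saturation at 30 °C; 1 = growth at the plate median or of vehicle wells; lower values mean less growth of the strain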
Details: S. cerevisiae deletion strains, growth OD, locus YBR023C, strain chs3, active compounds read low
The campaign covered roughly 5,500 compounds. About 2,000 (36%) were called active. Roughly 18% stayed inconclusive and do not appear here. Some of the results follow.
observable: normalized growth

molecule	observable	recorded_result
CCCc1nc(C)c2c(=O)[nH]c(-c3cc(S(=O)(=O)N4CCN(CC)CC4)ccc3OCC)nn12	normalized growth	0.974
C=CCSSSCC=C	normalized growth	0.986
CCCc1nn(C)c2c(=O)[nH]c(-c3cc(S(=O)(=O)N4CCN(C)CC4)ccc3OCC)nc12	normalized growth	0.988
Cc1cc(N)c2ccccc2[n+]1CCCCCCCCCC[n+]1c(C)cc(N)c2ccccc21	normalized growth	0.0647
NC[C@@H]1O[C@H](O[C@@H]2[C@@H](CO)OC(O[C@@H]3[C@@H](O)[C@H](N)C[C@H](N)[C@H]3O[C@H]3O[C@H](CO)[C@@H](O)[C@H](O)[C@H]3N)[C@@H]2O)[C@H](N)[C@@H](O)[C@@H]1O (some centres not stated)	normalized growth	0.999
CN[C@H]1CC[C@@H](c2ccc(Cl)c(Cl)c2)c2ccccc21	normalized growth	0.858
NC(=O)c1ccc([N+](=O)[O-])cc1Cl	normalized growth	0.985
C[N+]1(C)C[C@H](O)[C@H](C(=O)[O-])C1	normalized growth	1.02
COC(=O)C(N)CS (configuration not stated)	normalized growth	1.02
CC1(C)S[C@@H]2C(N3C(=O)[C@@H](c4ccccc4)NC3(C)C)C(=O)N2[C@H]1C(=O)O (some centres not stated)	normalized growth	1.04
C[C@]12CCC3C(CC[C@]4(O)C[C@@H](O)CC[C@]34C=O)[C@@]1(O)CCC2C1=CC(=O)OC1 (some centres not stated)	normalized growth	0.98
COC1C(O)C(O[C@H]2CC[C@]3(C=O)C4C(CC[C@]3(O)C2)[C@@]2(O)CC[C@H](C3=CC(=O)OC3)[C@@]2(C)C[C@H]4OC(C)=O)OC(C)C1OC(C)=O (some centres not stated)	normalized growth	1.01
CCn1nc(C(=O)O)c(=O)c2cc3c(cc21)OCO3	normalized growth	1.03
C=CCSSCC=C	normalized growth	1.02
C=CCSC[C@@H](N)C(=O)O	normalized growth	0.987
C[C@H]1O[C@@H](O[C@H]2[C@@H](O)C[C@H](O[C@H]3[C@@H](O)C[C@H](O[C@H]4CC[C@]5(C)C6CC[C@]7(C)[C@@H](C8=CC(=O)OC8)CC[C@]7(O)C6CC[C@@H]5C4)O[C@@H]3C)O[C@@H]2C)C[C@H](O)[C@@H]1O (some centres not stated)	normalized growth	0.957
CC(=O)OCC(=O)[C@@]1(O)CCC2C3C[C@H](C)C4=CC(=O)C=CC4(C)C3[C@@H](O)CC21C (some centres not stated)	normalized growth	1.02

Reference source for all entries: PubChem BioAssay AID1159580
